Provenance of the data: patent US20210275641A1

test-system: T1, human high affinity trimeric IL-2 receptor (CD25/CD122/CD132) (human, UniProt P01589 22-272; P14784 27-551; P31785 23-369)
T1 sequence 1: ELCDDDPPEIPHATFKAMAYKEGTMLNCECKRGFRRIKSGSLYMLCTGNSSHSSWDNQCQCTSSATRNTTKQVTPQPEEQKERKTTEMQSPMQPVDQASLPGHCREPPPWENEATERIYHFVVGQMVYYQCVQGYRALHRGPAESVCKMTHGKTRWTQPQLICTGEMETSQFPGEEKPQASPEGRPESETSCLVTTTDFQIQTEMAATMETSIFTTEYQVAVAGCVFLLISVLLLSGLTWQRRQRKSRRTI
T1 sequence 2: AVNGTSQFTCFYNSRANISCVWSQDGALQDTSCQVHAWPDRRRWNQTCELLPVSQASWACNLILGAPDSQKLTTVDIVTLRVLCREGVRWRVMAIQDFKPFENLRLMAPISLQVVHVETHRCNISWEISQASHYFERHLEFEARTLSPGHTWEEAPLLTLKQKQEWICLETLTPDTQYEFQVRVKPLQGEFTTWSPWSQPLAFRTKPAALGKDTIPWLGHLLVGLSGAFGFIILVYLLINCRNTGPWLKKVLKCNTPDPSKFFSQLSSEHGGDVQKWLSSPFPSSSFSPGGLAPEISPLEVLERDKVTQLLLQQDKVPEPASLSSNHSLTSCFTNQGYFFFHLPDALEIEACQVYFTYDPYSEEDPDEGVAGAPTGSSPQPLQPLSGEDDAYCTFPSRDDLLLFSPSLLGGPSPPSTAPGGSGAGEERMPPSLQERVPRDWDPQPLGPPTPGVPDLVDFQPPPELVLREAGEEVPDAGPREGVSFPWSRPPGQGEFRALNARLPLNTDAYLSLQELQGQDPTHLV
T1 sequence 3: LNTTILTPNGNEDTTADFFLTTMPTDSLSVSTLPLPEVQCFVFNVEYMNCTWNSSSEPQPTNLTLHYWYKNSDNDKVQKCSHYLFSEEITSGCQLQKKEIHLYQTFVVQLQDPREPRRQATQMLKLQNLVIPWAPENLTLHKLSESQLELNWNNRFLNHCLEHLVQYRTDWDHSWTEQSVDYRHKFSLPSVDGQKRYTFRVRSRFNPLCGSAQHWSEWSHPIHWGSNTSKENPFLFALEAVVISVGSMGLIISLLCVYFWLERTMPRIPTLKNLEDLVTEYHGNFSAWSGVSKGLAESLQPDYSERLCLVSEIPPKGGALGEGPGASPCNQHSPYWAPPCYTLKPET
test-description: cell-based or functional assay
reported-metric: pSTAT5 ratio YT CD25/YT, dilution factor 4, lower table

Below are worked cases with known answers.
binder="RAH (ligand) cytokine: APTSSSTKKTQLQLEHLRLDLAMILNGINNYKNPKLTRMLTFKFYMPKKATELKHLQCLEEELKPLEEVLNLAQSKNFHLRPRDLISNINVIVLELKGSETTFMCEYADETATIVEFLNRWITFCHSIISTLT" value_observed=0.7
binder="RHH (ligand) cytokine: APTSSSTKKTQLQLEHLRLDLHMILNGINNYKNPKLTRMLTFKFYMPKKATELKHLQCLEEELKPLEEVLNLAQSKNFHLRPRDLISNINVIVLELKGSETTFMCEYADETATIVEFLNRWITFCHSIISTLT" value_observed=2
binder="RDH (ligand) cytokine: APTSSSTKKTQLQLEHLRLDLDMILNGINNYKNPKLTRMLTFKFYMPKKATELKHLQCLEEELKPLEEVLNLAQSKNFHLRPRDLISNINVIVLELKGSETTFMCEYADETATIVEFLNRWITFCHSIISTLT" value_observed=1.8

I = RNH (ligand) cytokine: APTSSSTKKTQLQLEHLRLDLNMILNGINNYKNPKLTRMLTFKFYMPKKATELKHLQCLEEELKPLEEVLNLAQSKNFHLRPRDLISNINVIVLELKGSETTFMCEYADETATIVEFLNRWITFCHSIISTLT
II = RLH (ligand) cytokine: APTSSSTKKTQLQLEHLRLDLLMILNGINNYKNPKLTRMLTFKFYMPKKATELKHLQCLEEELKPLEEVLNLAQSKNFHLRPRDLISNINVIVLELKGSETTFMCEYADETATIVEFLNRWITFCHSIISTLT
Query: Of I and II , which carries the smaller reported pSTAT5 ratio YT CD25/YT, dilution factor 4, lower table figure? Indicate which entry you chose by stating its label.
Response: II
